This collection of values is drawn from patent CN113912709A.

Target: T1, SARS-CoV-2 Kappa variant RBD protein (L452R and E484Q) (SARS-CoV-2, UniProt P0DTC2 319-541)
T1 construct: domain: RBD; also called L452R和E484Q
Experiment: SPR, Biacore 8K, RBD on CM5 chip, IgG injected, 1:1 model
Measure: Kd (nM)
Please state the figure in nM; there is no need to write the unit.

Reference set (3 entries):
- Binder: "VacW-212 (antibody, V domains shown) VH: EVQLVESGGGLVQPGGSLRLSCAASGFTFSSYWMNWVRQAPGKGLEWVANIKQDESEKYYVDSVKGRFTISRDNAKNSLFLQMNSLRVEDTAVYYCARMEYPYGGIDYWGQGTLVTVSA VL: NFMLTQPHSVSESPGKTVTISCTGSSGSIASNYVQWYQQRPGSAPTTVIYEDNQRPSGVPDRFSGSIDSSSNSASLTISGLKTEDEADYYCQSYDSSNRNWVFGGGTKLTVL"
  Kd / nM: 1.32
- Binder: "VacW-209 (antibody, V domains shown) VH: QVQLVESGGGVVQPGRSLRLSCAASGFTFSSIAMHWVRQAPGKGLEWVAVMSFDGSIKYYGDSVKGRFTISRDNSKSTLYLQMNSLRAEDTAVYYCARGVQGYYDRSGYYNLDYNYGMDVWGQGTTVTVSS VL: QSVLTQPPSVSGAPGQRVTISCTGSSSNIGAGYDVHWYQQLPGTAPKLLIYGNSNRPSGVPDRFSGSKSGTSASLAITGLQAEDEADYYCQSYDSSLSGWVFGGGTKLTVL"
  Kd / nM: 0.0234
- Binder: "VacW-215 (antibody, V domains shown) VH: EVQLVESGGGLIQPGGSLRLSCAASGFTVSSNYMSWVRQAPGKGLEWVSVIYSGGSTYYADSVKGRFTISRDNSKNTLYLQMNSLRAEDTAVYYCARSTWLRGGFDYWGQGTLVTVSS VL: NFMLTQPHSVSESPGKTVTISCTGSSGSIASNYVQWYQQRPGSAPTTVIYEDNQRPSGVPDRFSGSIDSSSNSASLTISGLKTEDEADYYCQSYDSSNHFYVFGTGTKVTVL"
  Kd / nM: 0.676

Quick one: give measured Kd for VacW-201 (antibody, V domains shown) VH: EVQLVESGGGLVQPGGSLRLSCAASGFTFSSYWMNWVRQAPGKGLEWVANIKQDGSEKYYVDSVKGRFTISRDNAKNSLYLQMNSLRAEDTAVYYCARMEYPYGGVDYWGQGTLVTVSS VL: NFMLTQPHSVSESPGKTVTISCTGSSGSIASNYVQWYQQRPGSAPTTVIYEDNQRPSGVPDRFSGSIDSSSNSASLTISGLKTEDEADYYCQSYDSSNRNWVFGGGTKLTVL
1.71
